// reported cytotoxicity increase for each item listed
methodDescription: A CellTox Green Cytotoxicity Assay to monitor cytotoxicity in HepG2 cells - 16 hour (AID 1224876); further: on the % scale 0 is the no-effect control and ±100 the full control effect; nearly all actives have a fitted effect of over 45% in size
conditionInfo: CellTox Green fluorescence; series mostly up to 76.8 µM
Inconclusive results are not listed. Activity calls are given as the source filed them. The call rests on the fitted dose curve; in most records, active means well fitted activation curve with a large enough effect in the repeat runs; inconclusive means weak or mixed curves; inactive means flat fitted curve, though single readings scatter.
quantityName: cytotoxicity increase

[[record]]
molecule = "COc1cc(C(C)C)ccc1C"
observed = "-12.9% [at 15.8 µM] (inactive)"

[[record]]
molecule = "COc1cc2ncnc(Nc3cccc(Cl)c3)c2cc1OC"
observed = "-17.7% [at 15.8 µM] (inactive)"

[[record]]
molecule = "O=C(O)CN(CCCN(CC(=O)O)CC(=O)O)CC(=O)O"
observed = "-15.6% [at 15.8 µM] (inactive)"

[[record]]
molecule = "CCCCNc1ccc(NCCCC)c2c1C(=O)c1ccccc1C2=O"
observed = "-0.637% [at 15.8 µM] (inactive)"

[[record]]
molecule = "C=CC(=O)OCCOC1C2CCC1C1CC=CC12 (stereo unspecified)"
observed = "-1.04% [at 15.8 µM] (inactive)"

[[record]]
molecule = "CCCCCCCCCCCCS(=O)(=O)Cl"
observed = "-10.9% [at 15.8 µM] (inactive)"


Cited source for all entries: PubChem BioAssay (Tox21)
